// data source = patent US10292968B2

The compounds listed here are annotated with their IC50.
- measured.target: Brd 4 bromodomain 2 (BRD4(2)) (Homo sapiens)
- Construct: N-terminally His-tagged bromodomains (BRD4(1) at 20 nM and BRD4(2) at 100 nM)
- measurement.description: AlphaScreen inhibition of tetra-acetylated histone H4 binding to BRD4(2)
- measurement.conditions: BRD4(2) at 100 nM, tetra-acetylated histone H4 peptide, 30 min incubation; read-out: Alpha Screen BRD4(2)
Structures can show the parent of a compound that is named as a salt.

Fill in IC50 for Cc1n[nH]c2ccc(-c3[nH]c(-c4ccccc4)nc3-c3n[nH]c(=O)n3C3CC3)cc12 [Example 13, hydrochloride] tested with Brd 4 bromodomain 2 (BRD4(2)) (Homo sapiens).
0.3 to 3 µM

Fill in IC50 for CNC(=O)c1cccc(-c2[nH]c(-c3ccccc3)nc2-c2n[nH]c(=O)n2C2CC2)c1 [Example 3, hydrochloride] tested with Brd 4 bromodomain 2 (BRD4(2)) (Homo sapiens).
3 to 30 µM

Fill in IC50 for Cn1ncc2ccc(-c3[nH]c(-c4ccncc4)nc3-c3n[nH]c(=O)n3C3CC3)cc21 [Example 23, dihydrochloride] tested with Brd 4 bromodomain 2 (BRD4(2)) (Homo sapiens).
3 to 30 µM

Fill in IC50 for Cc1nn(C)c2ccc(-c3[nH]c(-c4ccccc4)nc3-c3n[nH]c(=O)n3C3CC3)cc12 [Example 15, hydrochloride] tested with Brd 4 bromodomain 2 (BRD4(2)) (Homo sapiens).
3 to 30 µM

###

- Test system: MV4-11 cells
- measurement.description: Inhibition of cell proliferation in MV4-11 cells (Cell Titer Aqueous One)
- Format: cell-based
- measurement.conditions: MV4-11; Human AML MV-4-11 cells, 72 h
pIC50: −log10 of the molar value. Structures can show the parent of a compound that is named as a salt.
recorded.metric: pIC50

>>> print(df.to_string())
                                   compound  measured_target  measured_result
0  NC(=O)c1cccc(-c2[nH]c(-c3ccccc3)nc2-c2n[nH]c(=O)n2C2CC2)c1 [Example 4, hydrochloride]     MV4-11 cells     4.52 to 5.52

Quick one: give measured pIC50 for Cn1ncc2ccc(-c3[nH]c(-c4ccccc4)nc3-c3n[nH]c(=O)n3C3CC3)cc21 [Example 7, hydrochloride]
4.52 to 5.52

Quick one: give measured pIC50 for CCC(=O)c1cccc(-c2[nH]c(-c3ccccc3)nc2-c2n[nH]c(=O)n2C2CC2)c1 [Example 6, hydrochloride]
4.52 to 5.52

###

- measured.target: Brd 4 bromodomain 2 (BRD4(2)) (Homo sapiens)
- Construct: N-terminally His-tagged bromodomains (BRD4(1) at 20 nM and BRD4(2) at 100 nM)
- measurement.description: AlphaScreen inhibition of tetra-acetylated histone H4 binding to BRD4(2)
- measurement.conditions: BRD4(2) at 100 nM, tetra-acetylated histone H4 peptide, 30 min incubation; read-out: Alpha Screen BRD4(2)
pIC50: −log10 of the molar value. Where a name gives a salt, the structure may show the parent alone.
The compounds listed here are annotated with their pIC50.

Answered cases to consult:
>>> print(df.to_string())
                                   compound                           measured_target  measured_result
0  Cn1cc(-c2nc(-c3n[nH]c(=O)n3C3CC3)c(-c3ccc4cnn(C)c4c3)[nH]2)cn1 [Example 25, hydrochloride]  Brd 4 bromodomain 2 (BRD4(2)) (Homo sapiens)     4.52 to 5.52
1  Cn1ncc2ccc(-c3[nH]c(-c4cn[nH]c4)nc3-c3n[nH]c(=O)n3C3CC3)cc21 [Example 26, hydrochloride]  Brd 4 bromodomain 2 (BRD4(2)) (Homo sapiens)     4.52 to 5.52
2  Cn1ncc2ccc(-c3[nH]c(-c4cccnc4)nc3-c3n[nH]c(=O)n3C3CC3)cc21 [Example 24, dihydrochloride]  Brd 4 bromodomain 2 (BRD4(2)) (Homo sapiens)     4.52 to 5.52
3  Cc1noc2ccc(-c3[nH]c(-c4ccccc4)nc3-c3n[nH]c(=O)n3C3CC3)cc12  Brd 4 bromodomain 2 (BRD4(2)) (Homo sapiens)     5.52 to 6.52
4  CC(C)Cn1c(-c2nc(-c3ccccc3)[nH]c2-c2ccc3cnn(C)c3c2)n[nH]c1=O  Brd 4 bromodomain 2 (BRD4(2)) (Homo sapiens)     4.52 to 5.52

Quick one: give measured pIC50 for Cn1nnc2ccc(-c3[nH]c(-c4ccccc4)nc3-c3n[nH]c(=O)n3C3CC3)cc21 [Example 14, hydrochloride]
≥ 6.52

Quick one: give measured pIC50 for `Cn1ncc2ccc(-c3[nH]c(-c4ccccc4)nc3-c3n[nH]c(=O)n3C3CCC3)cc21`
4.52 to 5.52

Quick one: give measured pIC50 for CC(=O)c1cccc(-c2[nH]c(-c3ccccc3)nc2-c2n[nH]c(=O)n2C2CC2)c1 [Example 1, hydrochloride]
4.52 to 5.52

Quick one: give measured pIC50 for Cn1ncc2cc(-c3[nH]c(-c4ccccc4)nc3-c3n[nH]c(=O)n3C3CC3)ccc21 [Example 10, hydrochloride]
5.52 to 6.52

Quick one: give measured pIC50 for CCC(=O)c1cccc(-c2[nH]c(-c3ccccc3)nc2-c2n[nH]c(=O)n2C2CC2)c1 [Example 6, hydrochloride]
4.52 to 5.52

Quick one: give measured pIC50 for `Cn1ncc2ccc(-c3[nH]c(-c4ccccc4)nc3-c3n[nH]c(=O)n3CC(C)(C)C)cc21`
4.52 to 5.52

Quick one: give measured pIC50 for CC(=O)c1cncc(-c2[nH]c(-c3ccccc3)nc2-c2n[nH]c(=O)n2C2CC2)c1 [Example 12, formate]
5.52 to 6.52

Quick one: give measured pIC50 for `CC(C)n1c(-c2nc(-c3ccccc3)[nH]c2-c2ccc3cnn(C)c3c2)n[nH]c1=O`
4.52 to 5.52

Quick one: give measured pIC50 for COC(=O)c1ccc(C)c(-c2[nH]c(-c3ccccc3)nc2-c2n[nH]c(=O)n2C2CC2)c1 [Example 2, hydrochloride]
4.52 to 5.52

###

The compounds listed here are annotated with their IC50.
- measured.target: Brd4 bromodomain 1 (BRD4(1)) (Homo sapiens, UniProt O60885)
- Construct: N-terminally His-tagged bromodomains (BRD4(1) at 20 nM and BRD4(2) at 100 nM)
- measurement.description: AlphaScreen inhibition of tetra-acetylated histone H4 binding to BRD4(1)
- measurement.conditions: BRD4(1) at 20 nM, tetra-acetylated histone H4 peptide, 30 min incubation; read-out: Alpha Screen BRD4(1)
Structures can show the parent of a compound that is named as a salt.

>>> print(df.to_string())
                                   compound  measured_result
0  Cc1n[nH]c2ccc(-c3[nH]c(-c4ccccc4)nc3-c3n[nH]c(=O)n3C3CC3)cc12 [Example 13, hydrochloride]      0.3 to 3 µM
1  Cn1ncc2ccc(-c3[nH]c(-c4cccnc4)nc3-c3n[nH]c(=O)n3C3CC3)cc21 [Example 24, dihydrochloride]       3 to 30 µM
2  CC(=O)c1cncc(-c2[nH]c(-c3ccccc3)nc2-c2n[nH]c(=O)n2C2CC2)c1 [Example 12, formate]       3 to 30 µM
3  CCC(=O)c1cccc(-c2[nH]c(-c3ccccc3)nc2-c2n[nH]c(=O)n2C2CC2)c1 [Example 6, hydrochloride]      0.3 to 3 µM
4  Cn1nnc2ccc(-c3[nH]c(-c4ccccc4)nc3-c3n[nH]c(=O)n3C3CC3)cc21 [Example 14, hydrochloride]         ≤ 0.3 µM

Quick one: give measured IC50 for `Cc1noc2ccc(-c3[nH]c(-c4ccccc4)nc3-c3n[nH]c(=O)n3C3CC3)cc12`
≤ 0.3 µM

Quick one: give measured IC50 for `CC(C)n1c(-c2nc(-c3ccccc3)[nH]c2-c2ccc3cnn(C)c3c2)n[nH]c1=O`
3 to 30 µM

###

- measured.target: Brd4 bromodomain 1 (BRD4(1)) (Homo sapiens)
- Construct: N-terminally His-tagged bromodomains (BRD4(1) at 20 nM and BRD4(2) at 100 nM)
- measurement.description: AlphaScreen inhibition of tetra-acetylated histone H4 binding to BRD4(1)
- measurement.conditions: BRD4(1) at 20 nM, tetra-acetylated histone H4 peptide, 30 min incubation; read-out: Alpha Screen BRD4(1)
pIC50: −log10 of the molar value. Counter-ions that a name gives are not always drawn.
recorded.metric: pIC50

Answered cases to consult:
>>> print(df.to_string())
                                   compound                           measured_target  measured_result
0  Cn1ncc2ccc(-c3[nH]c(-c4ccccc4)nc3-c3n[nH]c(=O)n3C3CC3)cc21 [Example 7, hydrochloride]  Brd4 bromodomain 1 (BRD4(1)) (Homo sapiens)           ≥ 6.52
1  Cn1ncc2cc(-c3[nH]c(-c4ccccc4)nc3-c3n[nH]c(=O)n3C3CC3)ccc21 [Example 10, hydrochloride]  Brd4 bromodomain 1 (BRD4(1)) (Homo sapiens)     4.52 to 5.52
2  CC(=O)c1cccc(-c2[nH]c(-c3ccccc3)nc2-c2n[nH]c(=O)n2C2CC2)c1 [Example 1, hydrochloride]  Brd4 bromodomain 1 (BRD4(1)) (Homo sapiens)           ≥ 6.52

Fill in pIC50 for CC(=O)c1cc(-c2[nH]c(-c3ccccc3)nc2-c2n[nH]c(=O)n2C2CC2)ccc1F [Example 8, hydrochloride] tested with Brd4 bromodomain 1 (BRD4(1)) (Homo sapiens).
≥ 6.52

Fill in pIC50 for NC(=O)c1cccc(-c2[nH]c(-c3ccccc3)nc2-c2n[nH]c(=O)n2C2CC2)c1 [Example 4, hydrochloride] tested with Brd4 bromodomain 1 (BRD4(1)) (Homo sapiens).
4.52 to 5.52

Fill in pIC50 for `CC(C)Cn1c(-c2nc(-c3ccccc3)[nH]c2-c2ccc3cnn(C)c3c2)n[nH]c1=O` tested with Brd4 bromodomain 1 (BRD4(1)) (Homo sapiens).
5.52 to 6.52

Fill in pIC50 for CC(=O)c1cc(F)cc(-c2[nH]c(-c3ccccc3)nc2-c2n[nH]c(=O)n2C2CC2)c1 [Example 9, hydrochloride] tested with Brd4 bromodomain 1 (BRD4(1)) (Homo sapiens).
5.52 to 6.52

Fill in pIC50 for Cn1ncc2ccc(-c3[nH]c(-c4ccncc4)nc3-c3n[nH]c(=O)n3C3CC3)cc21 [Example 23, dihydrochloride] tested with Brd4 bromodomain 1 (BRD4(1)) (Homo sapiens).
≥ 6.52

Fill in pIC50 for `Cn1ncc2ccc(-c3[nH]c(-c4ccccc4)nc3-c3n[nH]c(=O)n3CC(C)(C)C)cc21` tested with Brd4 bromodomain 1 (BRD4(1)) (Homo sapiens).
5.52 to 6.52

Fill in pIC50 for Cn1cc(-c2nc(-c3n[nH]c(=O)n3C3CC3)c(-c3ccc4cnn(C)c4c3)[nH]2)cn1 [Example 25, hydrochloride] tested with Brd4 bromodomain 1 (BRD4(1)) (Homo sapiens).
5.52 to 6.52

Fill in pIC50 for CC(=O)c1ccc(C)c(-c2[nH]c(-c3ccccc3)nc2-c2n[nH]c(=O)n2C2CC2)c1 [Example 11, hydrochloride] tested with Brd4 bromodomain 1 (BRD4(1)) (Homo sapiens).
4.52 to 5.52

Fill in pIC50 for Cn1ncc2ccc(-c3[nH]c(-c4cn[nH]c4)nc3-c3n[nH]c(=O)n3C3CC3)cc21 [Example 26, hydrochloride] tested with Brd4 bromodomain 1 (BRD4(1)) (Homo sapiens).
4.52 to 5.52

Fill in pIC50 for Cn1nc(-c2nc(-c3ccccc3)[nH]c2-c2ccc3cnn(C)c3c2)n(C2CC2)c1=O [Example 27, hydrochloride] tested with Brd4 bromodomain 1 (BRD4(1)) (Homo sapiens).
4.52 to 5.52
